assay info: gradient 5% acetonitrile 3 min, to 50% in 2 min, to 85% in 15 min, held 3 min, 100 µL/min
recorded conditions: column: Zorbax Extend-C18 2.1 x 50 mm; eluents: water / acetonitrile, 0.1% formic acid
Examples of molecules with documented RP-LC retention time follow.
measurement type: RP-LC retention time (s)

                                    molecule  obs_value
 0          CC(=O)NS(=O)(=O)c1ccc2sc(C)nc2c1        700
 1  COc1ccc(NC(=O)CN2C(=O)CC(c3cccs3)=Nc3ccccc32)cc1        899
 2  COc1ccc(NC(=O)C2CCCN(c3nnc4ccc(Cl)cn34)C2)cc1 (stereo not given)        666
 3    Cc1ccc2nc3c(C(=O)NC4CC4)cccn3c(=O)c2c1        942
 4  O=C(Cn1cnc2nc(N3CCC(C(=O)NC4CC4)CC3)sc2c1=O)Nc1ccc(F)c(F)c1        705
 5  CCC(C(=O)Nc1ccc(OC)c(OC)c1)n1cnc2nc3c(cc2c1=O)CCCC3 (stereo not given)        720
 6  CCOC(=O)Cc1ccc(NC(=O)N2CCC(n3c(C)nc4cccnc43)C2)cc1 (stereo not given)        598
 7  CC(C)S(=O)(=O)c1ccc(Cc2nnc(NC(=O)C3=COCCO3)o2)cc1        616
 8  CCCCN1CCN(C(=O)C2=NN(c3ccc(C)cc3)c3ncccc3S2(=O)=O)CC1        685
 9  CCC(C)NC(=O)c1cc(COc2ccc(NC(=O)C(C)(C)C)cc2)on1 (stereo not given)        900
10   CCc1nc2c(NC(=O)Nc3ccc4c(c3)CCC4)cccn2n1        957
11  O=C(Cn1c(=O)c(S(=O)(=O)c2ccccc2)cc2ccccc21)NCc1ccccc1        858
12  CCOC(=O)c1ccc(OC(=O)c2cn(CC)c(=O)c3ccccc23)cc1       1110
13  CC(C)c1noc(-c2ccc(-n3cnc(C(=O)NCC4CC4)c3)nc2)n1        839
14  Cc1cc(=O)n(CC(=O)Nc2ccc3c(c2)OCCO3)c(N)n1        542
15  CCN(c1ccccc1)S(=O)(=O)c1cc2c3c(c1)CCC(=O)N3CCC2        910
16  O=C(NCCCN1CCCCC1)C1CN(S(=O)(=O)c2cccnc2)CC12CCCCC2 (stereo not given)        573
17  CCOC(=O)c1oc2ccc(S(=O)(=O)N3CCCCCCNC(=O)[C@@H]4CCC[C@@H]43)cc2c1C       1060
18  CN(C)CC1CN(C(=O)c2ccc(F)c(F)c2)CC12CCOCC2 (stereo not given)        578
19  Cc1ccc(C)c(Sc2ccc(N3CCC(C(=O)NC4CC4)CC3)nn2)c1        713

====

assay info: gradient 5% acetonitrile 3 min, to 50% in 2 min, to 85% in 15 min, held 3 min, 100 µL/min
recorded conditions: column: Zorbax Extend-C18 2.1 x 50 mm; eluents: water / acetonitrile, 0.1% formic acid
Rule: t for RP-LC retention time not less than 800 s, f for anything less.

In [3]: df
Out[3]:
                                    compound  assigned_label
 0  CN(C)CCC(c1ccccc1)c1ccccn1 (stereo not drawn)               f
 1  CC(C)C(=O)N1CCc2cc(-c3ccc(C(=O)NCCN4CCN(C)CC4)cc3)ccc21               f
 2  O=C(C1COc2ccccc2O1)N1CCN(c2cc(-c3cccs3)[nH]n2)CC1 (stereo not drawn)               t
 3  CCOc1ccc(-c2cc(C(F)(F)F)nn2-c2nc(-c3ccc(F)cc3)cs2)cc1               t
 4  Cc1[nH]c(C(=O)N2CCCC(C(=O)NC(C)C)C2)c(C)c1C(=O)OC(C)C (stereo not drawn)               f
 5  Cc1nc(CNC(=O)C2CCN(C(=O)Nc3ccc(C)c(C)c3)CC2)cs1               f
 6  COc1cccc(CNC(=O)N2CCCC(Cn3cnc4cccnc43)C2)c1 (stereo not drawn)               f
 7  Cc1cc(-c2c(C)sc(C)c2S(=O)(=O)NC2CCCc3ccccc32)n[nH]1 (stereo not drawn)               t
 8  O=C(CN1C(=O)C2CCCCN2c2ccc(S(=O)(=O)N3CCCC3)cc21)N1CCCCCC1 (stereo not drawn)               t
 9  CCc1nc(N2CCC(C(=O)NCc3ccc(OC)c(OC)c3)CC2)c2c(C)scc2n1               f
10  Cc1nc(CCNC(=O)[C@H]2CCCN2C(=O)c2ccccc2Cl)cs1               f
11  CCCCn1c(=O)c2ccccc2n(Cc2nc(-c3cc(OC)c(OC)c(OC)c3)no2)c1=O               t
12        Nc1nc2ccc(Cl)cc2c2nc(-c3ccco3)nn12               f
13  Nc1nc(N2CCC3(CC2)OCCO3)ncc1C(=O)NCc1ccccc1F               f
14  COc1ccc(-c2noc(C3CCCN3C(=O)Nc3ccc(F)cc3F)n2)cc1 (stereo not drawn)               t
15  Cc1ccc2nc(C(=O)N3CCN(c4ccc(F)cc4)CC3)cn2c1               f
16  CCN1CCN(c2c(S(=O)(=O)c3ccc(C)c(C)c3)cnc3ccc(OC)cc23)CC1               f
17  O=c1ccn(-c2ccc(F)cc2)nc1-c1nc(-c2ccccc2F)no1               t
18  COC(=O)c1ccc(C(=O)NCC2CCS(=O)(=O)C2)cc1 (stereo not drawn)               f
19  CCn1c(=O)c(C)nc2cc(-c3noc(-c4sccc4C)n3)ccc21               t
20  CN1CCN(c2ccc(-c3nc(-c4ccccc4)no3)cn2)CC1               f
21  Cc1noc(-c2nn(C)c3c2CN(C(=O)C2(c4ccccc4)CC2)CC3)n1               f
22  CCOC(=O)c1noc2ncnc(NCCCN3CCCc4ccccc43)c12               t
23  COCC(=O)N(C1CCOCC1)C1CCN(S(=O)(=O)c2ccccc2F)CC1               f
24  COc1ccc(-c2cn3c(CC(=O)N4CCCc5ccccc54)csc3n2)cc1OC               f
25  CCc1ccc(CNC(=O)Cn2c(CC)nc3onc(C)c3c2=O)cc1               t
26  CCc1ccc(-c2ccc(-n3nc(C)c(S(=O)(=O)N4CCOCC4)c3C)nn2)cc1               t
27  CN(C)S(=O)(=O)c1ccc(-c2nnc(C(=O)NC3CCN(Cc4ccccc4)CC3)o2)cc1               f
28  CCc1cccc(NS(=O)(=O)c2cc3n(c2)CCN(CCOC)C3=O)c1               f
29  CCCCNC(=O)C1(c2ccc(NC(=O)C(C)C)cc2)CCCCC1               t
30  Cc1ccc(F)cc1NS(=O)(=O)c1ccc(-c2nnc(C3CCC3)o2)o1               t
31  CCOC(=O)C1CCN(C(=O)Cn2c(=O)oc3ccc(C(=O)N4CCCCC4)cc32)CC1               f
32  Cc1ccc(S(=O)(=O)N2C(=O)CCC2C(=O)NCc2nc(-c3ccc(Cl)cc3)no2)cc1 (stereo not drawn)               t
33  Cc1ccc(NC(=O)C2CCCN(S(=O)(=O)c3c[nH]c(C(=O)N4CCCCCC4)c3)C2)cc1 (stereo not drawn)               t
34     O=C(NCc1ccccn1)c1ccc2c(c1)nc1n2CCCCC1               f
